Molecular target: NMA1982 (Neisseria meningitidis)
Sequence (A1KVD0 entry or part of it): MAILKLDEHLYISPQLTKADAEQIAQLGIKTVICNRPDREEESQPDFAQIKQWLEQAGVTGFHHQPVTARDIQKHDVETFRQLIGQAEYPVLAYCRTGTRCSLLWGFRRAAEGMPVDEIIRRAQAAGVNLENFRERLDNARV
measure: IC50 (µM)

INSERT INTO assay_data (compound, measure, number) VALUES
  ('[O]=[V]([OH])([OH])[OH] [sodium orthovanadate]', 'IC50', 161);
